target_or_test_system: FZD5 (Homo sapiens, UniProt Q13467)
Construct: purchased Promega (in-house HiBiT-GPCR construct library, NanoBRET)
Sequence (Q13467 27-585): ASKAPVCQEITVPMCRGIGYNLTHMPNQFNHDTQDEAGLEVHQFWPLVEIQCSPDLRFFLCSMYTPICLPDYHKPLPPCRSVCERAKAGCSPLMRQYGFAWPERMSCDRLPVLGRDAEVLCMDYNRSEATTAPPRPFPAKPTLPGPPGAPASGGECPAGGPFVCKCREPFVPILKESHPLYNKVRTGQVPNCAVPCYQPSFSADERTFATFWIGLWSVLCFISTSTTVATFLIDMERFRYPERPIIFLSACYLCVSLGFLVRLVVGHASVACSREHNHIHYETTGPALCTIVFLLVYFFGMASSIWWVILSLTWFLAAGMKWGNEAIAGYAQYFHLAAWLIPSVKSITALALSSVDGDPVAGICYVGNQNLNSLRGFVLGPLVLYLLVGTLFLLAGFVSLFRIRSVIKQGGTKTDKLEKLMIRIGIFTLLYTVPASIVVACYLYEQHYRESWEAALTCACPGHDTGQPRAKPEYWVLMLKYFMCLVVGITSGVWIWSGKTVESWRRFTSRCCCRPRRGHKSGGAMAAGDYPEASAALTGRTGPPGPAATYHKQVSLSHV
protocol_details: NanoBRET screen HiBiT-FZD5 in HEK293
Format: binding
measurement_parameters: FZD5; tracer 1μM
Criterion: NanoBRET Fold Response meeting or surpassing 1. Met: fulfilled. Not met: not fulfilled.

>>> discrete_label("CC(C)N(CC[C@H](c1ccccc1)c1cc(CCNC(=O)c2ccc(CNC(=O)CCc3ccc4n3[B-](F)(F)[N+]3=C(c5ccc[nH]5)C=CC3=C4)cc2)ccc1O)C(C)C")
"fulfilled"
>>> discrete_label("N#CN=C(NCCCOc1cccc(CN2CCCCC2)c1)NCCNC(=O)CCOCCOCCOCCOCCNC(=O)CCc1ccc2n1[B-](F)(F)[N+]1=C(c3ccc[nH]3)C=CC1=C2")
"fulfilled"
>>> discrete_label("CC(C)N(CC[C@H](c1ccccc1)c1cc(CCNC(=O)CCOCCOCCOCCOCCNC(=O)CCc2ccc3n2[B-](F)(F)[N+]2=C(c4ccc[nH]4)C=CC2=C3)ccc1O)C(C)C")
"fulfilled"
>>> discrete_label("CCCn1c(=O)c2[nH]c(-c3ccc(OCC(=O)NCCNC(=O)CCOCCNC(=O)c4ccc(CNC(=O)CCc5ccc6n5[B-](F)(F)[N+]5=C(c7ccc[nH]7)C=CC5=C6)cc4)cc3)nc2n(CCC)c1=O")
"not fulfilled"
>>> discrete_label("O=C(CCOCCOCCOCCOCCNC(=O)CCc1ccc2n1[B-](F)(F)[N+]1=C(c3ccc[nH]3)C=CC1=C2)NCCCN1CCN(C2=Nc3ccccc3Oc3ccc(Cl)cc32)CC1")
"not fulfilled"
>>> discrete_label("O=C(CCc1ccc2n1[B-](F)(F)[N+]1=C(c3ccc[nH]3)C=CC1=C2)NCCOCCOCCNC(=O)OCCOCCN1CCN(C2=Nc3ccccc3Sc3ccccc32)CC1")
"not fulfilled"

The measurements presented in this section are drawn from paper PMC8151276.
